# credit: the supplement of paper PMC9170038

Test system: K4 kissing-loop RNA reporter
Experiment: apparent KD of K4 kissing-loop reporter; higher = weaker reporter binding
Conditions: Eterna round: R107; input ligand: none
Reported apparent KD of K4 kissing-loop reporter is given for each of the following sequences.
Give the figure together with its unit, number first.

In the examples that follow, each entry is paired with its recorded apparent KD of K4 kissing-loop reporter.
polymer-sequence	apparent KD of K4 kissing-loop reporter
CGGUUAUAGCAGGAUACCAGUACCCAUUAUGUACGUUUAUAGUAGAGUGAUGUUCUAAAGUACCCUUGGCAGCUUCCCGUGACCC [#23 K4 Theophylline B Exclusion]	168 nM
AUUAUAAAGUCGGCCGCCACUGAGAGUAGUGAUGUUACUCUAUUCCUUUACAUAUUAUAGUUUAUCAGGACCGGGACAUCAGAUU [JR_ExcTryptoB_Sub018]	279 nM
CGUGCCCAGCCGGAUACCAGUGACCCGCUGGGAACCGCGGGCCCAGAGUGAUGUUCGGGACACCCUUGGCAGCCGCCUGGGCGGG [#2 Same State - Theophylline B Attempt #15 (HarryS)]	1100 nM
CCAUUCUUUUACGAUACCAGUUUAAUAUAUUUAAUCAAAACCCUCGCCGAGUGAUGUUCGGACCCUUGGCAGCGUUUGCGAGAGG [bjnbstkmullin]	582 nM
CCAUCGCUAUUCGAUACCAGUCAAGAGGUCUUUGGCCUCUUAAUGGAGUGAUGUUCCUUAGACCCUUGGCAGCGAAUAGUGAUGG [Theophylline B K4 13]	237 nM
AAAUAACAGGCAGGAUAUGCUUAGUAAUAAGGCCAUAUAUACGUAUAGAGUGAUGUUUUGUACAAAGCAGAAGGGCUAAAUCCAU [FMN B Excl V1]	160 nM

With K4 kissing-loop RNA reporter as the test system, provide measured apparent KD of K4 kissing-loop reporter for this sequence: GGCGCUGUCUGUGCCGCCCUCCUCGUCCCUCGAGGACCGGUACGGCCGCCACUCGAGUGAUGUUCGGGUAGCCCUCCCUGCCAGC [BDazzled - #22 Exc. Tryptophan A]
492 nM

Enter recorded apparent KD of K4 kissing-loop reporter with K4 kissing-loop RNA reporter for GCAGUGAUGUUGCUGAUGUACAGUGGGAUACGAGGACCGGUACGGCCGCCACUCGUACAGAAUUUGUUAAUACAUCGAUAAGUGA [XV] here.
526 nM

Answer with apparent KD of K4 kissing-loop reporter of CCUAUCUCAUACGAUACCAGUCAACGAGUGAUGUUCGAAUAAAUAAAUUUGCCAUAUAAUGACCCUUGGCAGCGUAUGGGAUAGG [Ex Theophylline B K4 14] measured for K4 kissing-loop RNA reporter.
337 nM

Consider the sequence ACGCGCGCGAGUGAUGUUCGGAGCGGCUGGCAGGAUAUGUAGCAAUGCAGAAGGGUCGUGGCGCUCCCUCCUGAAGGAGGGAGCG [#2 Exclusion - FMN A Attempt #25 (HarryS)] tested on K4 kissing-loop RNA reporter; state its apparent KD of K4 kissing-loop reporter.
351 nM

Fill: apparent KD of K4 kissing-loop reporter (K4 kissing-loop RNA reporter) for this sequence CCCUCACGAGUGAUGUUCGUAGGGUACAGUCAGGAUAUCAUGCGGUUGAGAAGGGACAGAGAGGGCGGCGGCGGGUUGCUCCUCU [Beeded]
281 nM

Enter measured apparent KD of K4 kissing-loop reporter, system K4 kissing-loop RNA reporter, for the sequence shown: `UCCUGCAAUCCGCCACGAAAGUGGAUGGAUACCAGAGUCGAAAGACUCCCUUGGCAGCCAGUGAUGUUGGAAGCAGGUAAAUAAA`
715 nM

* * *

Test system: K4 kissing-loop RNA reporter
Test: apparent KD of K4 kissing-loop reporter; higher = weaker reporter binding
Conditions: Eterna round: R107; input ligand: arginine 13.2 mM
measured-endpoint: apparent KD of K4 kissing-loop reporter (nM)
Report the value in nM with no unit label.

Recorded apparent KD of K4 kissing-loop reporter, per entry:
>>> df
                           polymer_sequence                        measured_endpoint  unit_of_measurement  numeric_value
0  UUUGUAUAGGGAAGGAGCGUGAAUGAUAAUGAAUAUAGUGAUGUUAUAUAUAAGAAAGAAUCACAGGUAGGUCGCCCGGAUGAGG [SSArgB.K]  apparent KD of K4 kissing-loop reporter                   nM            400
1  AUUCUGUUUUUAAUGUUUAUUGUAUAAUGGCAGGAUAUCGUAGAAGCGAGAAGGGCUUUUAUGCGUUAUGAGUGAUGUUUGUAGG [dhhyfvmullin]  apparent KD of K4 kissing-loop reporter                   nM            247

Now turn to the next sequence.
Enter measured apparent KD of K4 kissing-loop reporter, system K4 kissing-loop RNA reporter, for the sequence shown: GGUGCUGUCUGUGCCGCCCUCCUCGUUCCUCGAGGACCGGUACGGCCGCCACUCGAGUGAUGUUCGGGUAGCGAUCCCUGCUAGC [Bdazzled - #17 Exc. Tryptophan A];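 also: bound reporter read as fluorescence of individual clusters on recovered sequencing chips by microscopy, with normalized cluster intensities fitted with a binding model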
176

* * *

System: MS2 coat protein
Assay: apparent KD of MS2 coat protein; higher = weaker reporter binding
Details: Eterna round: R107; input ligand: theophylline 20 uM
measured-endpoint: apparent KD of MS2 coat protein (nM)
Write down the numeric answer in nM and omit the unit.

Specify measured apparent KD of MS2 coat protein for UUCUGGUCCCGUGAUACCAGAGACAUGAGGAUCACCCAUGUACAUGAGGAUCACCCAUGUUUCCCUUGGCAGCACUGCAGUGAGC [Exclusion Theophylline B GF 15] .
160

Please indicate apparent KD of MS2 coat protein recorded for AAUAACAUGAGGAUCACCCAUGUAAAAGAUACCAGAGUGAUGAUCCUCCCUUGGCAGCUUAACGCUGAUUGGAAACAAUCAGCGA [Mat - Same State Theophlline A - Mod of Eli - D1]
268

Name the recorded apparent KD of MS2 coat protein of the sequence listed here: AAUUAUUACGGAAGGAGCGUCUUUCGGCUCAAACAUGAGGAUCACCCAUGUGAUUUUGAAUGACAGGUAGGUCGCCGAUAUUUGA [JR_AAArginiB_Sub030]
41.5

Retrieve apparent KD of MS2 coat protein measured for UUGUGUUUAUUGGUUUAGCUAUUAUGGUUGCGAGGACCGGUACGGCCGCCACUCGAUGGAACAUGAGGAUCACCCAUGUGAGGAA [JR_ExcTryptoA_Sub013] and print it.
31.8

Supply apparent KD of MS2 coat protein value. Item: GUUUACAUGAGGAUCACCCAUGUCGCCGGCCGAGGACCGGUACGGCCGCCACUCGUCCUAAUGGCACUUGACUUCCCUAUUAAGU [theeternabot_sameState_MS2_Trp_A_33]
31.3

Tell me its apparent KD of MS2 coat protein given ACGUAAAGCAGAAGGAGCGUCUUCAAAUUACAUGAGGAUCACCCAUGUUUUGUGAUCAUAUGACAGGUAGGUCGCUGAAGUACGA [JR_SSArginiB_Sub003] as the entry.
97.5

Recall and state the measured apparent KD of MS2 coat protein for GCUUCACAUGAGGAUCACCCAUGUCCGGAUACCAGCUCUCCAGACAGCCCUUGGCAGCCGAGCGCCCGAUUAUAUACCCUAGGAG [theeternabot_sameState_MS2_Theo_A_28] .
53.7

Please give the documented apparent KD of MS2 coat protein of UUAUUUAUAAUGGAUACCAGUUUAAUGGCCGCAAAUCCUGACAUGAGGAUCACCCAUGUAAGCCCUUGGCAGCUGUUAUGGGUUU [XTheo B #24]
47.3

Give the value of apparent KD of MS2 coat protein reported for the following: AAAAUAAAUAAAACGCGUAACAUGAAGGAUACCAGCCAGAAAACUGGCCCUUGGCAGCCUCUACAUGAGGAUCACCCAUGUCGCG [Mat - Same State Theophlline A - Mod of Eli - D15]
141

Please report apparent KD of MS2 coat protein for the following sequence: GAGUUGUGCUCAGGCCCGACUCGCUGAGAAGGAGCGCACUAAGGUGCAGGUAGGUCGCUCAGGAAUACAUGAGGAUCACCCAUGU [Erlaatti]
29.9

Item ACUCGACCAUCAGCCAUUUGUGAAUCACGGCGAGGACCGGUACGGCCGCCACUCGACAUGAGGAUCACCCAUGUAAGACCGGUGU [vmullin3] : provide apparent KD of MS2 coat protein
37.8

Identify apparent KD of MS2 coat protein associated with the sequence UGACAUUGCUCAGAUACCAGACAUGAGGAUCACCCAUGUACCAAGGUACCCGAAAGGAAUGUCCCUUGGCAGCUGAGCAAUGUCU [TheoBX 3 #MS2Left #Theo2 #StaticStem]
11.9

For the sequence UAAAUAAUCUGGGUGUAGGUAAUAACAGAUACCAGCCAGAUAACUGGCCCUUGGCAGCUGAAAACAUGAGGAUCACCCAUGUAAA [Mat - Same State Theophlline A - Mod of Eli - D19] , give its reported apparent KD of MS2 coat protein.
129

Answer with the recorded apparent KD of MS2 coat protein for the sequence listed here: ACUCGGUGUUUGUUGCUCCGAGUUUAUGAUACCAGUUAGUUUUAUGGCCCUUGGCAGCAUAGGACAUGAGGAUCACCCAUGUGUU [#03 SameState-TheophyllineA]
38.6

Answer with the recorded apparent KD of MS2 coat protein for the sequence listed here: CGUGGUGGGACGGAUACCAGCCACCGCGGCAACGCAACAUGAGGAUCACCCAUGUUGGGUGGCCCUUGGCAGCUGUGCUGCGACG [#1 Same State - Theophylline B Attempt #28 (HarryS)]
191

Specify reported apparent KD of MS2 coat protein for the sequence shown: AGAUUCGACACGGCCGCCACUCGUGACAGAUUUCGCAGUGGUCAACAUGAGGAUCACCCAUGUCUGAGGACCGGGUGUUGAGUCU [XTryp B #9]
39.3
